Origin of measurements: patent US12599672B2

Molecular target: KRAS G12V (Homo sapiens, UniProt P01116, G12V)
Construct: SW620-KRAS (G12V)-HiBit-KI cell (Pharmaron); host or cells: SW620-KRAS (G12V)-HiBit-KI cells (HiBiT knock-in at the endogenous KRAS locus)
Sequence (P01116 1-188 isoform P01116-2 G12V): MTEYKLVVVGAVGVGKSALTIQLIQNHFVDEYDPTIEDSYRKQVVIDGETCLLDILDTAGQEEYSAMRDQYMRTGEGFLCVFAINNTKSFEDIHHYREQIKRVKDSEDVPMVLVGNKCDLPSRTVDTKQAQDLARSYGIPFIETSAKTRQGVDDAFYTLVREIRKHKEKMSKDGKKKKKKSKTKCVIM
Test: KRAS G12V HiBit assay
Type: cell-based
Conditions: SW620-KRAS (G12V)-HiBit-KI cells, compound treatment for 24 hours, numeric bounds
Each entry below lists one item and its recorded DC50 value.

Completed entries (count: 3):
C#Cc1c(F)ccc2cc(O)cc(-c3ncc4c(N5CCC[C@@](C)(O)C5)nc(OC[C@@]56CCCN5[C@@H](COC(=O)N5CCC(CN7CCC(c8ccc9c(c8)n(C)c(=O)n9C8CCC(=O)NC8=O)CC7)CC5)CC6)nc4c3F)c12 (stereo partly drawn)    > 38.9 nM
CCc1c(F)ccc2cc(O)cc(-c3ncc4c(N5CCC[C@@](C)(O)C5)nc(OC[C@]56CCCN5[C@H](CN5CCC(OCCCc7ccc8c(c7)n(C)c(=O)n8C7CCC(=O)NC7=O)CC5)CC6)nc4c3F)c12 (stereo partly drawn)    > 78.5 nM
C#Cc1c(F)ccc2cccc(-c3ncc4c(N5CCC[C@@](C)(O)C5)nc(OC[C@@]56CCCN5[C@H](COC(=O)N5CCC(CN7CCC(c8cccc9c8n(C)c(=O)n9C8CCC(=O)NC8=O)CC7)CC5)CC6)nc4c3F)c12 (stereo partly drawn)    > 75.7 nM

[Q] Please supply the value of reported DC50 for the item CCc1c(F)ccc2cc(O)cc(-c3ncc4c(N5CCC[C@@](C)(O)C5)nc(OC[C@@]56CCCN5C(CN5CCC(Cc7ccc8c(c7)n(C)c(=O)n8C7CCC(=O)NC7=O)CC5)CC6)nc4c3F)c12 (stereo partly drawn)
[A] > 91.5 nM

[Q] Look up DC50 of C#Cc1c(F)ccc2cccc(-c3ncc4c(N5CCC[C@@](C)(O)C5)nc(OC[C@]56CCCN5[C@H](COC(=O)N5CCC(CN7CCC(c8ccc9c(c8)n(C)c(=O)n9C8CCC(=O)NC8=O)CC7)CC5)CC6)nc4c3F)c12 (stereo partly drawn) and report it.
[A] > 79.2 nM

[Q] Please list DC50 recorded for the molecule CCc1c(F)ccc2cc(O)cc(-c3ncc4c(N5CCC[C@@](C)(O)C5)nc(OC[C@@]56CCCN5[C@@H](COC(=O)N5CCC(CN7CCC(c8ccc9c(c8)n(C)c(=O)n9C8CCC(=O)NC8=O)CC7)CC5)CC6)nc4c3F)c12 (stereo partly drawn)
[A] > 70.5 nM

###

# DC50 values compiled below
Target: KRAS G12V (Homo sapiens, UniProt P01116, G12V)
Construct: SW620-KRAS (G12V)-HiBit-KI cell (Pharmaron); host or cells: SW620-KRAS (G12V)-HiBit-KI cells (HiBiT knock-in at the endogenous KRAS locus)
Experiment: KRAS G12V HiBit assay
Type: cell-based
Details: SW620-KRAS (G12V)-HiBit-KI cells, compound treatment for 24 hours, class symbols

CCc1c(F)ccc2cc(O)cc(-c3ncc4c(N5CCCCC5)nc(OC[C@@]56CCCN5[C@H](COC(=O)N5CCC7(CC5)CC(N5CCC(c8ccc9c(c8)n(C)c(=O)n9C8CCC(=O)NC8=O)CC5)C7)CC6)nc4c3F)c12 (some centres unmarked)    < 10 nM

Now examine the next entry.
[Q] For the compound CCc1c(F)ccc2cc(O)cc(-c3ncc4c(N5CCC[C@@](C)(O)C5)nc(OC[C@@]56CCCN5[C@H](COC(=O)N5CCC(N7CC8(CC(c9ccc%10c(c9)n(C)c(=O)n%10C9CCC(=O)NC9=O)C8)C7)CC5)CC6)nc4c3F)c12 (some centres unmarked) , give its measured DC50 value.
[A] < 10 nM

###

Measured DC50, listed per entry.
Molecular target: KRAS (Homo sapiens, UniProt P01116)
Construct: endogenous in cells; host or cells: KE39 (KRAS amplified) cells
Sequence (P01116 1-188 isoform P01116-2): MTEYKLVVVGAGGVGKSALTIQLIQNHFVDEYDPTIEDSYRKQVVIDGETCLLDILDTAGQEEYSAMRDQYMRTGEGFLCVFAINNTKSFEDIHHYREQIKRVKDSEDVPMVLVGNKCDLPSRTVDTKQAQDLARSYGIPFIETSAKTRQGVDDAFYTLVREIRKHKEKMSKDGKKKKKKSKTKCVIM
Assay: KRASamp MSD assay
Type: cell-based
Settings: KE39 (KRAS amplified) cells, treated with test compounds for 24 hr, MSD readout of KRAS degradation

CCc1c(F)ccc2cc(O)cc(-c3ncc4c(N5CCC[C@@](C)(O)C5)nc(OC[C@@]56CCCN5[C@H](COC(=O)N5CCC7(CCC(CN8CCC(c9ccc%10c(c9)n(C)c(=O)n%10C9CCC(=O)NC9=O)CC8)CC7)CC5)CC6)nc4c3F)c12 (stereo partly shown)    < 1 nM
CCc1c(F)ccc2cc(O)cc(-c3ncc4c(N5CCC[C@@](C)(O)C5)nc(OC[C@@]56CCCN5[C@H](COc5ccc(CN7CCC(c8ccc9c(c8)n(C)c(=O)n9C8CCC(=O)NC8=O)CC7)cc5)CC6)nc4c3F)c12 (stereo partly shown)    < 1 nM
C#Cc1c(F)ccc2cc(O)cc(-c3ncc4c(N5CCC[C@@](C)(O)C5)nc(OC[C@@]56CCCN5[C@H](COC(=O)N5CCC(CN7CCC(c8ccc9c(c8)n(C)c(=O)n9C8CCC(=O)NC8=O)CC7)CC5)CC6)nc4c3F)c12 (stereo partly shown)    < 1 nM
C#Cc1c(F)ccc2cc(O)cc(-c3ncc4c(N5CCC[C@@](C)(O)C5)nc(OC[C@@]56CCCN5[C@H](COC(=O)N5CC7(CCC(CN8CCC(c9ccc%10c(c9)n(C)c(=O)n%10C9CCC(=O)NC9=O)CC8)CC7)C5)CC6)nc4c3F)c12 (stereo partly shown)    < 1 nM
CCc1c(F)ccc2cc(O)cc(-c3ncc4c(N5CCC[C@@](C)(O)C5)nc(OC[C@@]56CCCN5[C@H](COC(=O)NC5CCN(C7CCN(c8ccc9c(c8)n(C)c(=O)n9C8CCC(=O)NC8=O)CC7)CC5)CC6)nc4c3F)c12 (stereo partly shown)    ≥ 10 nM

[Q] Entry C#Cc1c(F)ccc2cc(O)cc(-c3ncc4c(N5CCC[C@@](C)(O)C5)nc(OC[C@@]56CCCN5[C@H](COC(=O)N5CCC(OC7CCN(c8ccc9c(c8)n(C)c(=O)n9C8CCC(=O)NC8=O)CC7)CC5)CC6)nc4c3F)c12 (stereo partly shown) needs its DC50 filled in; supply it.
[A] < 1 nM

[Q] In one line, give reported DC50 of the entry C#Cc1c(F)ccc2cc(O)cc(-c3ncc4c(N5CCCC(F)(F)C5)nc(OC[C@]56CCCN5[C@H](COC(=O)N5CCC(CN7CCC(c8ccc9c(c8)n(C)c(=O)n9C8CCC(=O)NC8=O)CC7)CC5)CC6)nc4c3F)c12 (stereo partly shown) .
[A] 1 to 10 nM

[Q] Recall and state the measured DC50 for C#Cc1c(F)ccc2cc(O)cc(-c3ccc4c(N5CCC[C@@](C)(O)C5)nc(OCC5(CN6CCN(CC7CCN(c8ccc9c(c8)n(C)c(=O)n9C8CCC(=O)NC8=O)CC7)CC6)CC5)nc4c3F)c12 (stereo partly shown) .
[A] 1 to 10 nM

###

Biological target: KRAS G12D (Homo sapiens, UniProt P01116, G12D)
Construct: AsPc-1-KRAS (G12D)-HiBit-KI cell (Pharmaron); host or cells: AsPc-1-KRAS (G12D)-HiBit-KI cells (HiBiT knock-in at the endogenous KRAS locus)
Sequence (P01116 1-188 isoform P01116-2 G12D): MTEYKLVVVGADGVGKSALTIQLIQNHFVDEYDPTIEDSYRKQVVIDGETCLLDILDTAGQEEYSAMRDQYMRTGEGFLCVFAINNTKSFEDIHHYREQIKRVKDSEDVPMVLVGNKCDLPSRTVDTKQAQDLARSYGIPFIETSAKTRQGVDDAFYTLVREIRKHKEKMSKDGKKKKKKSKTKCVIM
Assay: KRAS G12D HiBit assay
Format: cell-based
Settings: AsPc-1-KRAS (G12D)-HiBit-KI cell, compound treatment for 24 hours, absolute DC50; class symbols
test-readout: DC50

C#Cc1c(F)ccc2cc(O)cc(-c3ncc4c(N5CCC[C@@](C)(O)C5)nc(OC[C@@]56CCCN5[C@H](COC(=O)N5CCC(CN7CCC(c8cccc9c8n(C)c(=O)n9C8CCC(=O)NC8=O)CC7)CC5)CC6)nc4c3F)c12 (some centres unmarked) [Compound 133]    < 0.1 µM

Kindly review the next compound as well.
[Q] Item C#Cc1c(F)ccc2cc(O)cc(-c3ncc4c(N5CCC[C@@](C)(O)C5)nc(OC[C@@]56CCCN5[C@H](COC(=O)NCCOCCOc5ccc7c(c5)n(C)c(=O)n7C5CCC(=O)NC5=O)CC6)nc4c3F)c12 (some centres unmarked) [Compound 114] : provide DC50
[A] > 0.3 µM

###

Reported DC50 is given for each of the following compounds.
Molecular target: KRAS G12D (Homo sapiens, UniProt P01116, G12D)
Construct: AsPc-1-KRAS (G12D)-HiBit-KI cell (Pharmaron); host or cells: AsPc-1-KRAS (G12D)-HiBit-KI cells (HiBiT knock-in at the endogenous KRAS locus)
Test: KRAS G12D HiBit assay
Assay type: cell-based
Conditions: AsPc-1-KRAS (G12D)-HiBit-KI cell, compound treatment for 24 hours, absolute DC50; class symbols

C#Cc1c(F)ccc2cc(O)cc(-c3ncc4c(N5CCC[C@@](C)(O)C5)nc(OCC5(CN6CCN(CC7CCN(c8ccc9c(c8)C(=O)N(C8CCC(=O)NC8=O)C9=O)CC7)CC6)CC5)nc4c3F)c12 (some centres unmarked) [Compound 50]    < 100 nM
C#Cc1c(F)ccc2cccc(-c3ncc4c(N5CCCC(C#N)CC5)nc(OC[C@@]56CCCN5[C@H](COC(=O)NCCOCCOc5ccc7c(c5)n(C)c(=O)n7C5CCC(=O)NC5=O)CC6)nc4c3F)c12 (some centres unmarked) [Compound 117]    > 300 nM
Cn1c(=O)n(C2CCC(=O)NC2=O)c2ccc(C3CCN(C4CC5(CCN(C(=O)OC[C@@H]6CC[C@]7(COc8nc(N9CCC[C@@](C)(O)C9)c9cnc(-c%10cc(O)cc%11cccc(Cl)c%10%11)c(F)c9n8)CCCN67)CC5)C4)CC3)cc21 (some centres unmarked) [Compound 338]    < 100 nM
C#Cc1c(F)ccc2cccc(-c3ncc4c(N5CCC[C@@](C)(O)C5)nc(OCC5(CN6CCC7(CC6)CC(N6CCN(c8cccc9c8n(C)c(=O)n9C8CCC(=O)NC8=O)CC6)C7)CC5)nc4c3F)c12 (some centres unmarked) [Compound 70]    > 300 nM
CCc1c(F)ccc2cc(O)cc(-c3ncc4c(N5CCC(O)CC5)nc(OC[C@@]56CCCN5[C@H](COC(=O)N5CCC7(CC5)CC(N5CCC(c8ccc9c(c8)n(C)c(=O)n9C8CCC(=O)NC8=O)CC5)C7)CC6)nc4c3F)c12 (some centres unmarked) [Compound 358]    < 100 nM
CCc1c(F)ccc2cc(O)cc(-c3ncc4c(N5CCC[C@@H](CO)C5)nc(OC[C@@]56CCCN5[C@H](COC(=O)N5CCC(CN7CCC(c8ccc9c(c8)n(C)c(=O)n9C8CCC(=O)NC8=O)CC7)CC5)CC6)nc4c3F)c12 (some centres unmarked) [Compound 340]    < 100 nM
Cn1c(=O)n(C2CCC(=O)NC2=O)c2ccc(C3CCN(C4CC5(CCN(C(=O)OC[C@@H]6CC[C@]7(COc8nc(N9CCC[C@@](C)(O)C9)c9cnc(-c%10cc(O)cc%11ccc(F)cc%10%11)cc9n8)CCCN67)CC5)C4)CC3)cc21 (some centres unmarked) [Compound 474]    < 100 nM
CCc1c(F)ccc2cccc(-c3ncc4c(N5CCC[C@@](C)(O)C5)nc(OC[C@@]56CCCN5[C@H](COC(=O)NCCOCCOCCOCCOc5ccc7c(c5)n(C)c(=O)n7C5CCC(=O)NC5=O)CC6)nc4c3F)c12 (some centres unmarked) [Compound 105]    > 300 nM

[Q] Given C#Cc1c(F)ccc2cc(O)cc(-c3ncc4c(N5CCC[C@@](C)(O)C5)nc(OCC5(CN6CCN(Cc7ccc8c(c7)n(C)c(=O)n8C7CCC(=O)NC7=O)CC6)CC5)nc4c3F)c12 (some centres unmarked) [Compound 42] , respond with its DC50.
[A] > 300 nM

[Q] Fill in reported DC50 for this entry: CCc1c(F)ccc2cc(O)cc(-c3ncc4c(N5CCC[C@@](C)(O)C5)nc(OC[C@@]56CCCN5[C@H](COC(=O)N5CCC(CN7CCC(c8ccc9c(c8)n(C)c(=O)n9C8CCC(=O)NC8=O)C(F)(F)C7)CC5)CC6)nc4c3F)c12 (some centres unmarked) [Compound 398]
[A] < 100 nM

[Q] Give DC50 for C#Cc1c(F)ccc2cc(O)cc(-c3ncc4c(N5CCCC(C#N)CC5)nc(OC[C@@]56CCCN5[C@H](COC(=O)N5CCC(CN7CCC(c8ccc9c(c8)n(C)c(=O)n9C8CCC(=O)NC8=O)CC7)CC5)CC6)nc4c3F)c12 (some centres unmarked) [Compound 110]
[A] < 100 nM
